Provenance of the data: the supplement of paper PMC12042874

procedure-text: amyloid nucleation score (Sup35N fusion, yeast selection) (log enrichment); library NNK1; higher = more nucleation; inactive = no reads after selection;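 also: zero at mode of non-aggregating sequences after 7 days selection at 30°C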
result-type: amyloid nucleation score

Consider the following illustrative entries.
substance	result-type	result
VGHKNSYGRFKDIWIWLWYQ	amyloid nucleation score	-0.009
DSWLVAESSIHAF	amyloid nucleation score	-0.049
RVCCWHFTFVTVCCKLLSMT	amyloid nucleation score	1.93
MYYLRHF	amyloid nucleation score	inactive
CGAMGVVL	amyloid nucleation score	0.112
CCYYTSVILVFDGRFDEMPY	amyloid nucleation score	4.23

# next substance below
The substance identified as SWHLDWFTYPFNKSD registered its amyloid nucleation score at inactive

====

procedure-text: amyloid nucleation score (Sup35N fusion, yeast selection) (log enrichment); library NNK3; higher = more nucleation; inactive = no reads after selection
result-type: amyloid nucleation score

Example cases with answers are listed next.
substance	result
QMQTATRHFNLG	inactive
FIPGAMVRYQGRILLRSDAG	inactive
NYGNPRRMVCSEYGWESLCK	inactive
VVMKGTRMVKVKERGSGKDY	inactive
RGSPFSWVGPSDRSWSPKFP	inactive

Kindly note the recorded amyloid nucleation score for YSVAHQIPDDDRQGE , which is inactive

====

procedure-text: amyloid nucleation score (Sup35N fusion, yeast selection) (log enrichment); library NNK2; higher = more nucleation; inactive = no reads after selection
result-type: amyloid nucleation score

sequence-data	result-type	result
ENVFDCNRFY	amyloid nucleation score	inactive
FLLRIWTACVLFACKYRGIR	amyloid nucleation score	inactive
IDRGTFVLGFYRYKYNYFFK	amyloid nucleation score	inactive

====

procedure-text: amyloid nucleation score (Sup35N fusion, yeast selection) (log enrichment); library NNK2; higher = more nucleation; inactive = no reads after selection
result-type: amyloid nucleation score
// no unit string in output, number only

sequence-data	amyloid nucleation score
SRVIVGLWYDGRVKPLELCM	0.342
FMRQMLLVLMPWCQRRWACL	-0.382
CKTTQDSDITCK	-0.747
IYRGESIIWVNNSWIEDSLR	1.56
VKHVIAHTRG	1.52

Lab book: amyloid nucleation score of VVTFTDYI noted as 0.237

// amyloid nucleation score lookup, sequence = RYRRFVIGVQWQRLSRG , result: -0.19

====

procedure-text: amyloid nucleation score (Sup35N fusion, yeast selection) (log enrichment); library NNK3; higher = more nucleation; inactive = no reads after selection
result-type: amyloid nucleation score

Guide cases for amyloid nucleation score, answers given:
substance	amyloid nucleation score
VNLYGSRL	inactive
VLPCVMYNIHPQITCRR	inactive
SFYIVVRWMYIRFVDQYLIY	inactive
YHLSSMVTVWKDSVMLAT	inactive
SFAGYRQIGRQGVWVIQVRH	inactive
DFHYFKRVRNQGWNQKRKRY	inactive

// sample FFLAASPISRNWWSSSLGHS , its amyloid nucleation score was inactive

Lab note: measured amyloid nucleation score of YSKFFTENVYNSISGAMPHF was inactive

amyloid nucleation score recorded for this substance, RGTRTGPRDRTLFMSKAVRS , is 0.364

====

procedure-text: amyloid nucleation score (Sup35N fusion, yeast selection) (log enrichment); library NNK2; higher = more nucleation; inactive = no reads after selection
result-type: amyloid nucleation score
// return just the number, without any unit appended

Consider the reported amyloid nucleation score for these substances:
substance	quantitative-readout
DRSFVETREVACVVMYTSVF	-0.395
VYHSGMTLFNFCCSMHLVEL	9.22
CSMKYGCRVYVRNPSLSECD	0.547

The value of amyloid nucleation score measured for the substance SQFLEYTFEYFSGFPGRLVE turned out to be -0.316

amyloid nucleation score in this record for SRTIGTMQLVTMNWCFRKEA : 5.37

The substance listed as VRYMLRTLEYMSRVGCSISH has a reported amyloid nucleation score of 0.101

Record YSVSSMVKPMIICCNSVNC , field amyloid nucleation score: 8.34

Quick note, amyloid nucleation score for VMWDRRHFMAVSSDLEDKTR landed at 0.438

Measured amyloid nucleation score, NCDRPTLEMSVNRRLFSCPE : 0.54

Entry IQINLLNSGYSFRLRASKFS , amyloid nucleation score reported as 2.89

Just so you know, measured amyloid nucleation score for IGMSHRSQACESFKVKCPTY came out at 1.66

====

procedure-text: amyloid nucleation score (Sup35N fusion, yeast selection) (log enrichment); library NNK1; higher = more nucleation; inactive = no reads after selection
Each record here notes measured amyloid nucleation score.
Give only the figure.

Illustrative cases are given below, each with its answer.
substance	amyloid nucleation score
SVVLCMNCGGCLMEIKGGGY	4.89
VEGLEDGVWR	0.876
FSEVTLFFPKDAILEFSARC	-0.353
SELGVSSVRLERAFILGSWT	-1.63
YCKLDLPVTIEVKCSRGRMS	5.17
NLFSGNLPRFDFAIQGAFVN	-0.447
LSNFLHCG	0.907
FEWRFPHQR	-0.025
VLNEAYYDLYVYSHVSFSVL	-0.248
DQVQGFISFLMLFKDFVSYG	-0.028

Sure, the documented amyloid nucleation score for QGRLYSH is 0.438

Lookup result for MMNVTVKRFRLDQHRLIDCA ; measured amyloid nucleation score: 0.383

Item: NCIPALHEYVCMRR | amyloid nucleation score: 0.282

Entry LYFWFVCNFAEIDFTITL ; amyloid nucleation score = 3.05

====

Entries annotated with measured amyloid nucleation score
procedure-text: amyloid nucleation score (Sup35N fusion, yeast selection) (log enrichment); library NNK2; higher = more nucleation; inactive = no reads after selection
The response must contain the number and no unit.

Recorded results for 4 substances are shown here.
substance	amyloid nucleation score
WISNAWLYLWKHR	0.586
VTAAVNCFVNKAQLCTCLFM	9.1
CNVHWGRL	0.089
RLMCVLMGYRGSSGVDCRSA	0.185

Entry IVYWSSEWRKPGAHDTLD , amyloid nucleation score reported as 0.451

Just so you know, measured amyloid nucleation score for CGLYWFMVFTF came out at 0.147

The substance LRFSWDKISFVVRWLVVGLT showed amyloid nucleation score equal to 0.138

Recorded result, SCAHCCHRKVLR , amyloid nucleation score: 0.53

Sure, the documented amyloid nucleation score for CTSHWAYEDEDFFIDRLYFT is -0.796

// field: amyloid nucleation score; key: NGLYCFEVLLGSSAFPWTG ; value = 3.63

====

procedure-text: amyloid nucleation score (Sup35N fusion, yeast selection) (log enrichment); library NNK3; higher = more nucleation; inactive = no reads after selection
result-type: amyloid nucleation score

Here is how some substances turned out for amyloid nucleation score.
substance	amyloid nucleation score
WQICSGA	inactive
PVNIVCTVNSLSGSYED	inactive
PRHWFREFMGMVMI	0.317
QLSSYFRGLLFQCHSPQHGY	inactive
DGYKMCRDGIGWIGT	inactive

Measured amyloid nucleation score, GHLFVNTRYFGNFLDSSQVR : inactive

The reported amyloid nucleation score of the substance NLGTTLYVEICNWRIVLYIV was inactive

Just so you know, measured amyloid nucleation score for SSDDFSWTIRMRRSEFTSHG came out at inactive

Entry LYLSLFGQVPYSS ; amyloid nucleation score = -0.473

The substance listed as DFFLDYL has a reported amyloid nucleation score of inactive

// DGLKNYRWYRFNTLDDGLAG : amyloid nucleation score value = inactive

Lab book: amyloid nucleation score of VTGMFDSSLRRKMKVPVWAI noted as inactive

The recorded amyloid nucleation score for CCVGYFYGLEV is 2.06

====

procedure-text: amyloid nucleation score (Sup35N fusion, yeast selection) (log enrichment); library NNK2; higher = more nucleation; inactive = no reads after selection

sequence-data	amyloid nucleation score
FDLNYPSVSIIGKVLCSGPV	inactive
CLPFYCTFGSVVARAGVYH	inactive
VDFVIGLLKPTVVKNHGCWS	-0.301

====

procedure-text: amyloid nucleation score (Sup35N fusion, yeast selection) (log enrichment); library NNK1; higher = more nucleation; inactive = no reads after selection
Listed below: amyloid nucleation score values for each entry.
// no unit string in output, number only

Solved cases (5 shown):
sequence-data	amyloid nucleation score
SSRNSAAFLNHFDADRGLLP	1.53
HSCRMYYSQRIYIPSNDGSD	1.68
SSFQIRVSVLRRHCISGLIY	1.01
VKCVKVLMLHSWF	1.53
LNGNLVTMEGVLINNSFRVT	0.394

From here, focus on the item given below.
Entry FGICKYFNRFVMNIRSVDES ; amyloid nucleation score = -0.618

====

procedure-text: amyloid nucleation score (Sup35N fusion, yeast selection) (log enrichment); library NNK2; higher = more nucleation; inactive = no reads after selection
result-type: amyloid nucleation score
// print number alone

Examples from the recorded data:
sequence-data	quantitative-readout
CLDFYFIVGNFNQHLVRCVL	1.79
IVMFQNFVQMDVNYCCFLEV	6.77

For record CDQYLIYNLSVSGMSIASRG the listed amyloid nucleation score is -0.497

// sample KPSKYPVYLLGVVKVQVDYD , its amyloid nucleation score was -0.849

Field amyloid nucleation score (entry RTVQQIAPVGGHERVKC ) reads -0.175
